Compiled notes: published Ki values involving Protein kinase C alpha type (Rattus norvegicus).
Number in µM, nothing else.

{"Molecule": "CCCCCCCCCCCCCC(=O)O[C@@H]1CC(=O)O[C@H]1CO", "Measured value": 1.5}
{"Molecule": "CCCCCCCCCCCCCCOC(=O)C[C@@H]1CC(=O)O[C@H]1CO", "Measured value": 1.47}
{"Molecule": "CCCCCCCCCCCCC(=O)N1CCCCC1CNC(=O)[C@@H](N)CCCCN (stereo not given in full)", "Measured value": 12}
{"Molecule": "CCCCCCCCCCCCCCOC(=O)C[C@@H]1CC(=O)O[C@H]1CCO", "Measured value": 18.6}

Turning now to a further record.
Qu. Param item = CCCCCCCCCCCCCC(=O)O[C@@H]1CCCC(=O)O[C@H]1CO ; retrieve measured Ki.
Ans. 41
